assay: folding stability dG unfold from chymotrypsin proteolysis; higher = more stable
Label 1 for high-side folding stability dG unfold (at or above 3 kcal/mol) and 0 for low-side folding stability dG unfold (below it).

Answered cases to consult:
>  <sequence>
SAGGGREIKVEFEIPHPNGNQMRITVTIYRSPGGIRIKIPVSYTDPEYRDYMREWAEYLARRIAKELSAGGS [r8_416_TrROS]

>  <category>
1

$$$$
>  <sequence>
SAGGSAGGSGSLLEKLGLEPNSTVTVTVTPEEAEKIRAEPRVKEIKREPTPEDTYLYTITVVASAGGSAGGS [r12_750_JUSTAS]

>  <category>
0

$$$$
>  <sequence>
SAGGSAGGSAGGGTAEELAKELEDLGYKVKLEPEGDYLLLTVTDPDNDKPYVILLDPETISAGGSAGGSAGG [r7_0_TrMRF]

>  <category>
0

$$$$
>  <sequence>
SAGGIKEVKFDPKTNTLTVYLPEVGATITYNPTAGKLEIYSKDGKPKTIDVPTPSEMKKAILKAYKELKSAG [r5_467_TrMRF]

>  <category>
0

$$$$

Exam item: decide whether the reported folding stability dG unfold for SAKKVKIEIKNKETNKIYTIEIKEDGKVTIKNKETGEEIEVEINGKKITFPPGASIDEIIKKLEEALKKSAG [r14_561_TrROS_Hall] is at least 3 kcal/mol.
0

Exam item: decide whether the reported folding stability dG unfold for SAGGSAKIDIEVDPEDGYIRIKLEVQHNDEPVKATMWYPLPDDGMFIRIRFDMPNGKIEEIETIPPSAGGSA [r2_331_TrROS] is at least 3 kcal/mol.
1

Exam item: decide whether the reported folding stability dG unfold for SAGGSAGGSATTVTVESDPATGTRFVYETDEKNPGLLKVTKVTTLPDGSVVVETGYISPEKLSAGGSAGGSA [r18_505_JUSTAS] is at least 3 kcal/mol.
0

Exam item: decide whether the reported folding stability dG unfold for MTIVIDTPVPPEEAEALLRELAEELGYSPELMEVEERVFSEGEDGRPYVTLTVRLPGLGVTITLRLPPDAAS [r1_21_JUSTAS] is at least 3 kcal/mol.
1

Exam item: decide whether the reported folding stability dG unfold for SAGGSAGGSAGDEPNDVVKIDFTFFFEDGYMIEMDIVIVPNGNIAIEIEIEPIKPPDEGDSAGGSAGGSAGG [r11_998_TrROS] is at least 3 kcal/mol.
0

---

test: folding stability dG unfold from trypsin proteolysis; higher = more stable
endpointName: folding stability dG unfold (kcal/mol)
Respond numerically; units are kcal/mol and should not be typed.

Known folding stability dG unfold results, listed for orientation:
>  <sequence>
SAGGSAGGSAGGPEYIQINIKIYDPDNPKEREIPISMPVEEIEKIAKEFMPPGYRVEIISAGGSAGGSAGGS [r10_397_TrROS]

>  <folding stability dG unfold / kcal/mol>
0.152

$$$$
>  <sequence>
SKKVTLPIRFPWNGWEIEITAEELAEKKGLDPEDLTIHVVMPGPGWMYTIKIDPDGIEIEPIGPVPPNDMSA [r9_819_TrROS]

>  <folding stability dG unfold / kcal/mol>
1.45

$$$$
>  <sequence>
SAGGSAGGKTISIPGSIEEIQEKLGGPIDEVEHNKPGSGSYKPKNGKPITIHFDSPEDILDFFKSAGGSAGG [r6_19_TrROS]

>  <folding stability dG unfold / kcal/mol>
0.318

$$$$

# evaluate next
Would you mind telling me what folding stability dG unfold value was observed for SAGGSAGGSAGEEEELPLVIRVRFKGPEEVEIEIEAESLEDALAAIESLPDIEEIEILPRSAGGSAGGSAGG [r11_587_TrROS_Hall] ?
0.632
